The reported measurements were obtained from PubChem BioAssay (NCI).

Tested on: HCC-2998 colon
Assay: NCI-60 one-dose screen, 48 h
Details: 10 µM unless noted
Compounds without any hit were thinned out: in the full panel of roughly 83,000, 20% have a hit. The source made the active and inactive calls. How the source made its calls: active means growth percent below 10; inactive means the rest.
Log the outcome using a class from active, inactive

Q: Hey, what did the test say about `CC(C)(C)c1cc(C(=O)Nc2ccccc2C(=O)NCCN)cc(C(C)(C)C)c1` ?
Ans: active

Q: Same question, Cc1nc(Cl)c2c(n1)N(C)c1ccc(Cl)cc1C(C)C2 (configuration not stated) this time
Ans: inactive

----------
Test system: SK-MEL-28 melanoma
Experiment: NCI-60 one-dose screen, 48 h (100 = growth as untreated, 0 = no growth, -100 = all killed)
Conditions: 10 µM unless noted
Experimental: Growth inhibition of the SK-MEL-28 human tumor cell line is measured as a screen for anti-cancer activity. Cells are grown in 96 well plates and exposed to the test compound for 48 hours. Compounds are tested at a single concentration, which is 10^-5 M for most compounds. The reported endpoint is percent growth (GI% or GIPRCNT), where numbers from 0 - 100% represent growth inhibition, and numbers from -100% - 0 represent cell death. For example, a value of 40 represents 60% growth inhibition. […]
This is part of a sample that, as a whole, favours compounds with a hit. Of some 83,000 tested, about 20% had one in any assay.
growth strictly under 90% means 1; at 90% or over means 0.

Take a look at these entries with their results.
> print(dat)
                                   compound  classification
1      Oc1cc(Nc2ccnc3cc(Cl)ccc23)c2ncccc2c1               1
2  COc1ccc(OC)c([N+](=O)[O-])c1C(=O)CNC(C)=O               0
3  O=C(Nc1ccc(Oc2ccc(F)cc2)c(Cl)c1)c1cnccn1               1
4  N/C(=N\c1nc2ccccc2[nH]1)NC(=O)Cc1cccc2ccccc12               1
5  CCn1cc(-c2ccnc(NCCNS(=O)(=O)c3ccc(Br)cc3)c2)c(-c2cccc(OC)c2)n1               0

Next item in the queue.
Q: Is the reported growth for CCOC(=O)c1nn(C2CCCCO2)c2ccc(NS(=O)(=O)c3ccc(C)cc3)cc12 (configuration not stated) strictly below 90%?
Ans: 0

----------
System: SK-OV-3 ovarian
Assay: NCI-60 one-dose screen, 48 h
Details: 10 µM unless noted
This is part of a sample that, as a whole, favours compounds with a hit. Of some 83,000 tested, about 20% had one in any assay. Activity calls are given as the source filed them. Rule for the calls: active = growth percent below 10; inactive = the rest.
Choose the fitting class; nothing outside active, inactive is accepted.

MOLECULE	ASSAY_SYSTEM	CLASSIFICATION
O=C(NCCO)c1cccnc1	SK-OV-3 ovarian	inactive
CCN(CC)CCS(=O)(=O)CCNc1ccnc2cc(Cl)ccc12	SK-OV-3 ovarian	inactive
CCOC(=O)c1c[nH]n2c(=S)ncnc12	SK-OV-3 ovarian	inactive
Cc1cc(C)c(-c2cc(O)c(-c3c(C)cc(C)cc3C)cc2O)c(C)c1	SK-OV-3 ovarian	active
O=C(N/N=C\c1cc(Cl)ccc1O)N/N=C/c1cc(Cl)ccc1O	SK-OV-3 ovarian	inactive

Q: Given `CCc1cccc(Cl)c1` , state the outcome it received in this test.
Ans: inactive

Q: Try this molecule next: `CNc1cc(C(=O)O)nc(NC)n1`
Ans: inactive

Q: Input `CCN(CC)CCCOc1ccc2c(c1)O/C(=C\c1cccc(OC)c1)C2=O`
Ans: inactive

Q: How about `O=C(O)c1cn(C2CC2)c2cc(N3CCN(Cc4c(O)ccc5ccccc45)CC3)c(F)cc2c1=O` ?
Ans: inactive

Q: What do you get for `COc1ccc(NC(=O)Nc2ccc(-c3cccnc3)cc2N2CCC(CO)CC2)cc1` ?
Ans: inactive

Q: Now give it for `CCN(CC)c1cc(N)c(Cc2c(N)cc(N(CC)CC)cc2Cl)c(Cl)c1` too.
Ans: inactive

Q: # repeat for `CS(=O)(=O)c1cccnn1`
Ans: inactive

Q: Same read-out for `CCCCOC(=O)c1cccc([N+](=O)[O-])c1` ?
Ans: inactive

Q: Same lookup for `COc1cc(NCc2ccccc2O)c2ncccc2c1` , please.
Ans: inactive

Q: Quick one: `Cn1cc(-c2noc(-c3cn(C)c4ncc(F)cc34)n2)c2cc(Br)ccc21`
Ans: inactive

----------
Test system: NCI-H460 lung
Assay: NCI-60 one-dose screen, 48 h
Details: 10 µM unless noted
This is part of a sample that, as a whole, favours compounds with a hit. Of some 83,000 tested, about 20% had one in any assay. Active and inactive are the calls of the source. Rule for the calls: active = growth percent below 10; inactive = the rest.
Hi there, use one of these labels in your reply, thanks! T (active), F (inactive)

> print(dat)
                                   compound  classification
1  CCc1ccc(C2=C/C(=C/c3ccccc3)C(=O)N2CCc2ccc(S(N)(=O)=O)cc2)cc1               F

Could you now consider this next compound?
Q: Query: recorded result category for `O=C1COCCN1c1ccc(NCc2cn(Cc3ccc(F)cc3)c3ccccc23)cc1` in this test
Ans: F

----------
System: A549/ATCC NSCLC
Test: NCI-60 one-dose screen, 48 h (100 = growth as untreated, 0 = no growth, -100 = all killed)
Conditions: 10 µM unless noted
Compounds without any hit were thinned out: in the full panel of roughly 83,000, 20% have a hit.
Mark yes (1) for reported growth of 70% or greater; mark no (0) for anything smaller.

Known results for compounds:
> print(dat)
                                   compound  classification
1  O=C(Nc1cccnc1)c1ccc2ccc3ccc(C(=O)Nc4cccnc4)nc3c2n1          no (0)
2                        CS(=O)(=O)c1cccnn1         yes (1)
3  CCN(CC)c1ccc2cc(C(Nc3ccc(Cl)cc3)c3nnnn3C(C)(C)C)c(=O)oc2c1 (stereo unspecified)         yes (1)
4  CCCn1ccnc1C(O)c1ccc(OCc2ccccc2)c(OC)c1 (stereo unspecified)         yes (1)
5  Cn1cc(-c2noc(-c3cn(C)c4ncccc34)n2)c2cc(Cl)ccc21         yes (1)
6  O=C(N/N=C\c1cc(Cl)ccc1O)N/N=C/c1cc(Cl)ccc1O          no (0)

Q: hey, is growth for this one >= 70%? `Cc1ccc(Cn2c(O)c(N=NC(=O)c3ccc(S(N)(=O)=O)cc3)c3ccccc32)cc1`
Ans: yes (1)

Q: What about this compound? `COc1cc(C)cc2oc3oc(=O)c(C(=O)c4cc5cc(Br)ccc5o4)cc3c(=O)c12`
Ans: yes (1)

Q: Also `Cc1ccccc1OC(=O)c1cccc(Cl)c1` ?
Ans: yes (1)

----------
System: HS 578T breast
Test: NCI-60 one-dose screen, 48 h
Conditions: 10 µM unless noted
About 83,000 compounds went through this panel and 20% of them were active in at least one assay; those are over-represented in the sample as a whole. Activity calls are given as the source filed them. The calls were made as follows: active = growth percent below 10; inactive = the rest.
Lab note: assign the record to one of active, inactive

Some solved cases for reference:
> print(dat)
                                   compound    assay.system  classification
1  Cc1ccc(S(=O)(=O)Oc2ccc([N+](=O)[O-])cc2[N+](=O)[O-])cc1  HS 578T breast        inactive
2  CCn1cc(-c2cc(-c3ccc(Cl)cc3)nc(N)n2)c(-c2ccc(Br)cc2)n1  HS 578T breast        inactive
3  c1cc2ccc1CNCCN1CCNCc3ccc(cc3)Oc3ccc(cc3)CNCCN(CCNCc3ccc(cc3)O2)CCNCc2ccc(cc2)Oc2ccc(cc2)CNCC1  HS 578T breast          active
4  CCOC(=O)c1nn(C2CCCCO2)c2ccc(NS(=O)(=O)c3ccc(C)cc3)cc12 (stereo not drawn)  HS 578T breast        inactive
5  Nc1nc(Nc2ccccc2)c2ncn(Cc3cc4c(cc3Br)OCO4)c2n1  HS 578T breast        inactive

Q: So what was the verdict on `O=C(CCCSc1nc(-c2ccccc2)cc(-c2ccccc2)n1)NO` in this test?
Ans: inactive

Q: Similarly, `Nc1cc(Cl)cc2cccnc12` ?
Ans: inactive

Q: What about this compound? `Cc1cc(C)nc(SCC(=O)Nc2cccc(N=Cc3ccccc3O)c2)n1`
Ans: inactive

Q: Also need CCOC(=O)c1nn(C2CCCCO2)c2ccc(NC(=O)CN3CCOCC3)cc12 (stereo not drawn) , thanks.
Ans: inactive

Q: Next compound up: `C[n+]1cccc(NC(=O)c2ccc3ccc4ccc(C(=O)Nc5ccc[n+](C)c5)nc4c3n2)c1`
Ans: inactive

Q: Ok, now `O=C(N/N=C/c1ccc([N+](=O)[O-])cc1)c1ccc(Br)o1`
Ans: inactive

----------
Test system: TK-10 renal
Experiment: NCI-60 one-dose screen, 48 h
Conditions: 10 µM unless noted
Compounds without any hit were thinned out: in the full panel of roughly 83,000, 20% have a hit. The source made the active and inactive calls. How the source made its calls: active means growth percent below 10; inactive means the rest.
Respond with a class label; see active, inactive

COMPOUND	ASSAY_SYSTEM	CLASSIFICATION
C=C(C)[C@@H]1CC[C@]2(C(=O)NCCCCCCN(CCCN)CCCN)CC[C@]3(C)[C@H](CC[C@@H]4[C@@]5(C)CC[C@H](OCCCN)C(C)(C)[C@@H]5CC[C@]43C)[C@@H]12	TK-10 renal	inactive
O=C1Nc2ccccc2/C1=C/C(=O)c1ccc(N2CCOCC2)cc1	TK-10 renal	inactive
CCN(CC)CCCNCc1cc(-c2ccccc2)nc2ccccc12	TK-10 renal	inactive
COc1ncc(-c2ccc3nc(N)n(-c4ccccc4C(F)(F)F)c(=O)c3c2)cc1S(=O)(=O)Nc1ccc(F)cc1F	TK-10 renal	inactive
Cc1cccc(C[C@H](NC(=O)Nc2ccc(Cl)cc2F)C(=O)N[C@@H]2C(=O)N3C[C@H](O)C[C@H]3C(=O)N3CCCC[C@H]3C(=O)N[C@@H](C)C(=O)N3C[C@H](C)C[C@H]3C(=O)O[C@H]2C)c1	TK-10 renal	inactive
Cc1cc(C)c(O)c(CNCCCNCc2cc(C)cc(C)c2O)c1	TK-10 renal	inactive
CCOC(=O)CC(c1ccccc1)C(C#N)c1ccccc1 (stereo not given)	TK-10 renal	inactive
CCN=C1C=CC(=C(c2ccc(N(CC)CC)cc2)c2ccc(N(CC)CC)cc2)c2ccccc21	TK-10 renal	active

Below: the item to evaluate.
Q: What did this assay record as the result for `Cc1ncc(C(=O)Nc2ccc(CN3CCN(C)CC3)c(C(F)(F)F)c2)cc1C#Cc1c(N)ncc2ccc(C#N)cc12` ?
Ans: inactive
